# system.tested: T1, collagenase 1 (UniProt P03956 100-469, limits assumed)
# T1 sequence (looked up): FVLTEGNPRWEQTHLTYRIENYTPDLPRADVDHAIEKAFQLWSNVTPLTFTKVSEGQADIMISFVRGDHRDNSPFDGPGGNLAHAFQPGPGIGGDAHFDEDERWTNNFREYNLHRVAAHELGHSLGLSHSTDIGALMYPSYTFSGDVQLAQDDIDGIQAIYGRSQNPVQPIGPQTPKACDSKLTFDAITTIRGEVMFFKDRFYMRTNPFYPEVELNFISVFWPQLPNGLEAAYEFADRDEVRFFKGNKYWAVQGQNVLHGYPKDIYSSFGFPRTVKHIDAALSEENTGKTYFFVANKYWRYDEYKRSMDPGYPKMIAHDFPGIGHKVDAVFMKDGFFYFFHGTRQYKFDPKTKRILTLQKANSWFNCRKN
# protocol.summary: cell-based or functional assay
*1 amine or outer side, *2 acyl side, *3 side chain or, on linkers, in order; H or OH if unused. [ ]: non-standard residue; d: D form. The star is where a group is joined. Dnp = O=[N+]([O-])c1ccc(*)c([N+](=O)[O-])c1; C(Me) = CSC[C@H](N[*:1])C(=O)[*:2]
Record form. Attribute: Selectivity v. Coll-3. Fill in for each entry.
Numbers only, in unitless.

Completed entries (count: 2):
>>> assay_value("Dnp-GPLPFRV[C(Me)]-NH2 (SMILES CSC[C@H](NC(=O)[C@@H](NC(=O)[C@H](CCCNC(=N)N)NC(=O)[C@H](Cc1ccccc1)NC(=O)[C@@H]1CCCN1C(=O)[C@H](CC(C)C)NC(=O)[C@@H]1CCCN1C(=O)CNc1ccc([N+](=O)[O-])cc1[N+](=O)[O-])C(C)C)C(N)=O) [Dnp-GPLPFRVC(Me)-NH2]")
550
>>> assay_value("Dnp-V[C(Me)]PKGITS[C(Me)]VFR-NH2 (SMILES CC[C@H](C)[C@H](NC(=O)CNC(=O)[C@H](CCCCN)NC(=O)[C@@H]1CCCN1C(=O)[C@H](CSC)NC(=O)[C@@H](Nc1ccc([N+](=O)[O-])cc1[N+](=O)[O-])C(C)C)C(=O)N[C@H](C(=O)N[C@@H](CO)C(=O)N[C@@H](CSC)C(=O)N[C@H](C(=O)N[C@@H](Cc1ccccc1)C(=O)N[C@@H](CCCNC(=N)N)C(N)=O)C(C)C)[C@@H](C)O) [Dnp-VC(Me)PKGITSC(Me)VFR-NH2]")
215

Kindly consider the entry below.
query: Identify measured Selectivity v. Coll-3 corresponding to Dnp-GPSGIHL-NH2 (SMILES CC[C@H](C)[C@H](NC(=O)CNC(=O)[C@H](CO)NC(=O)[C@@H]1CCCN1C(=O)CNc1ccc([N+](=O)[O-])cc1[N+](=O)[O-])C(=O)N[C@@H](Cc1c[nH]cn1)C(=O)N[C@@H](CC(C)C)C(N)=O) [Dnp-GPSGIHL-NH2]
result: 3440

Entry source: patent US20030229005A1
